- target: BSA (Bos taurus)
- Construct: purchased SIGMA A-0281
- Sequence (P02769 25-607): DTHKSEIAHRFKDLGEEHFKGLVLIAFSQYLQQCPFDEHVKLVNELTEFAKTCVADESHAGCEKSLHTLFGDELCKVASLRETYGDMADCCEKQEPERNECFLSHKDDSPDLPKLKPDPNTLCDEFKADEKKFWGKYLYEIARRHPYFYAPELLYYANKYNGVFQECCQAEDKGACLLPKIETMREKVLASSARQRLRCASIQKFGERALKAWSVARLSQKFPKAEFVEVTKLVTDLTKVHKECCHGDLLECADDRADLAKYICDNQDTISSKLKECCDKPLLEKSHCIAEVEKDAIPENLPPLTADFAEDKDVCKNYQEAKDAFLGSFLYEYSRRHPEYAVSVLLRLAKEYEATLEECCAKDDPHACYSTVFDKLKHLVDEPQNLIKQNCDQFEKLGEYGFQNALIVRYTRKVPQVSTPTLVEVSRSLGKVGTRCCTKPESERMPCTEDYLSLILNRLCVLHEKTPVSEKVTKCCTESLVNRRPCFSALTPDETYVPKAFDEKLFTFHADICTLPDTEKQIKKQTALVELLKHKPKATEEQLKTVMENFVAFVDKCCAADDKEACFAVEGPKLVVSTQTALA
- run-description: appearance (browning) of reaction solution of carbonyl compound and BSA
- Parameters: species or system bovine
- test-parameters: 25 mM carbonyl compound, BSA 5 mg/ml, 37° C., 168 hours
endpoint-label: browning of reaction solution

* O=CC(=O)C[C@H](O)[C@H](O)CO | observed
* O=CC=O | observed
* CC(=O)C=O | observed

src = patent US20080268477A1
